Recorded values, source PubChem BioAssay (NCI).

# System: PC-3 prostate
# procedure.details: NCI-60 one-dose screen, 48 h (100 = growth as untreated, 0 = no growth, -100 = all killed)
# test.parameters: 10 µM unless noted
About 83,000 compounds went through this panel and 20% of them were active in at least one assay; those are over-represented in the sample as a whole.
measured.endpoint: growth (%)
Kindly answer with a numeric value in %, unit omitted.

compound	growth, %
Cc1cc(O[C@@H]2O[C@@H](C)[C@H](O)[C@@H](O)[C@H]2O)c2c3c(c(O[C@@H]4O[C@@H](C)[C@H](O)[C@@H](O)[C@H]4O)cc2c1)C(=O)c1c(O)cccc1C3=O	56.7
CN(C)c1ccc(/C=N/N=C(N)N)cc1	83.8

What the record says about Cc1nccc2c3ccc(OCc4cn(Cc5ccc(Br)cc5)nn4)cc3n(CCCc3ccccc3)c12 : growth is 77.9

Value of growth reported for the compound O=C1OC(N(Cc2ccc(Cl)cc2)c2ccccc2)c2ccccc21 (centres undefined) is 98.2

====

# Test system: NCI-H23 lung
# procedure.details: NCI-60 one-dose screen, 48 h
# test.parameters: 10 µM unless noted
This is part of a sample that, as a whole, favours compounds with a hit. Of some 83,000 tested, about 20% had one in any assay. Active and inactive are the calls of the source. How the source made its calls: active means growth percent below 10; inactive means the rest.
Mark one answer only. Choices: active, inactive

Worked cases, answers included:
compound	discrete.label
O=C(/C=C/c1ccccc1)Oc1ccc(/C=C/c2cc(OC(=O)/C=C/c3ccccc3)cc(OC(=O)/C=C/c3ccccc3)c2)cc1	inactive
Clc1ccc2c(NCCNc3nc(Cl)nc4ccccc34)ccnc2c1	active

Problem: Dear all, I need the recorded test outcome for O=C1CN(CCN2CC(=O)NC(=O)C2)CC(=O)N1 , thank you.
Solution: inactive

====

# System: CAKI-1 renal
# procedure.details: NCI-60 one-dose screen, 48 h (100 = growth as untreated, 0 = no growth, -100 = all killed)
# test.parameters: 10 µM
About 83,000 compounds went through this panel and 20% of them were active in at least one assay; those are over-represented in the sample as a whole.
measured.endpoint: growth (%)
The response must be a number in % with no trailing unit.

molecule	units	result
CC(=O)Nc1ccc(OC(=O)c2ccccc2O)cc1	%	91.3
O=C(Nc1ccc(-n2ccc3c(NC(=O)c4ccccc4)nccc32)cc1)Nc1cccc(C(F)(F)F)c1	%	68.6
CC(CN(C)C)CN1c2ccccc2CCc2ccccc21 (stereo unspecified)	%	70.6
COc1cc(-c2nc(SCC(=O)Nc3ccc(C(C)=O)cc3)[nH]c(=O)c2C#N)cc(OC)c1OC	%	61.5
O=S1(=O)N(CCNc2nccc(-c3c(-c4cccc(O)c4)nc4sccn34)n2)CCN1Cc1ccccc1	%	39.4
O=C(Nc1ccc(-n2cc(-c3ccncc3)c(-c3ccc(O)c(Cl)c3)n2)cc1)c1ccc(Cl)c(Cl)c1	%	18.6
CCCCNc1cc(C(=O)O)cc(S(N)(=O)=O)c1Oc1ccccc1	%	89.3
CCCCOc1nc2ccc(Cl)cc2cc1/C=C/C(=O)/C=C/c1ccc(Cl)cc1	%	98.1

Lab note: next molecule to report on.
The molecule identified as COc1ccc(-c2[nH]c3ccccc3c2/C=C(\C#N)S(=O)(=O)c2ccccc2)cc1 registered its growth at -14.3

====

Recorded growth for the following compounds
# Test system: NCI-H522 lung
# procedure.details: NCI-60 one-dose screen, 48 h (100 = growth as untreated, 0 = no growth, -100 = all killed)
# test.parameters: 10 µM unless noted
About 83,000 compounds went through this panel and 20% of them were active in at least one assay; those are over-represented in the sample as a whole. Activity calls are given as the source filed them. How the source made its calls: active means growth percent below 10; inactive means the rest.

The examples below pair each entry with its known result.
compound	growth
CC1(C)CC(=O)C2=C(C1)OC1=C(C(=O)CC(C)(C)C1)C2c1ccc(OCc2cn(-c3ccc(F)cc3F)nn2)cc1	77% (inactive)
O=C(Nc1ccccc1F)Nc1ccccc1Cl	54.9% (inactive)
COc1cc2c(/C=C3/C(=O)Nc4ccc(O)cc43)c(Cl)n(Cc3cc(OC)c(OC)c(OC)c3)c2cc1C	0.662% (active)
Cc1cc(SCc2ccc(Cl)cc2Cl)nc(SCc2ccc(Cl)cc2Cl)n1	89.1% (inactive)
O=C(COc1ccc(Cl)cc1Cl)N1N=C(c2ccc(Cl)cc2Cl)CC1(O)c1cc(F)c(Cl)cc1Cl (stereo not given)	95% (inactive)
COc1ccc(-c2c(NC(=O)Nc3ccc(Cl)c(C(F)(F)F)c3)cnn2-c2ccc(S(N)(=O)=O)cc2)cc1	43.7% (inactive)
CC(C)NCC(O)COc1ccc(CC(N)=O)cc1 (stereo not given)	94.9% (inactive)
CCN(CC)CCNC(=O)c1c(C)[nH]c(/C=C2\C(=O)Nc3cc(NC(=O)NC(=O)c4ccc(OC)cc4F)ccc32)c1C	104% (inactive)
CCCCOc1c(N)cccc1C(=O)OCCN(CC)CC	76.5% (inactive)
Oc1ccccc1/C=N/c1ccccn1	92% (inactive)

Kindly note the recorded growth for O=C(NCCNc1nccc(-c2c(-c3cccc(O)c3)nc3sccn23)n1)c1cc(N2CCOCC2)cc(C(F)(F)F)c1 , which is 78.6% (inactive)

So, COc1ccc(-c2nn(-c3cccc(Cl)c3)cc2-c2cc(-c3ccc(Br)cc3)[nH]c(=O)c2C#N)cc1 ? Its growth was 74.7% (inactive)

Lab note: measured growth of CSc1ccc(C(=O)C[n+]2cccc(C)c2)cc1 was 110% (inactive)

COc1ccc(C(=O)NC(=O)Nc2ccc3c(c2)NC(=O)/C3=C\c2[nH]c(C)c(C(=O)O)c2C)cc1 yielded growth of 7.54% (active)

Data point: O=C(Nc1ccc(-n2ccc3c(NC(=O)c4ccccc4)nccc32)cc1)c1ccc(Cl)c(C(F)(F)F)c1 ; growth = -0.6% (active)

According to the records, this compound Nc1nc2ccc(CNc3ccc(C(=O)NC(CC(=O)O)C(=O)O)cc3)cc2c(=O)[nH]1 (stereo not given) displays growth of -0.0288% (active)

COc1ccc(Cl)cc1NC(=O)c1cc2c(n1C)-c1nc(NC(=O)C(C)C)sc1CC2 has a reported growth of 49.9% (inactive)

# growth of CCOC(=O)NNc1nncc2ccccc12 = 103% (inactive)

Reported growth for Cc1c(NC(=O)c2sc3nc4c(cc3c2N)CN(Cc2ccccc2)CC4)cccc1C(F)(F)F was 10.4% (inactive)

Reported growth of CN1C(=O)C2(SCC(C(=O)NCC(=O)OC(C)(C)C)N2C(=O)C2CCCCC2)c2ccccc21 (stereo not given) : 80.9% (inactive)

====

# System: KM12 colon
# procedure.details: NCI-60 one-dose screen, 48 h
# test.parameters: 10 µM unless noted
The panel holds about 83,000 compounds, 20% with a hit somewhere; the sample as a whole holds those more often. The source made the active and inactive calls. Rule for the calls: active = growth percent below 10; inactive = the rest.
Return exactly one item of TRUE = active, FALSE = inactive

Examples with answers:
compound	discrete.label
Nc1ccc(S(=O)(=O)Nc2cc(I)cc(I)c2)cc1	FALSE
CC(=O)Nc1ccc([I+]c2ccc([N+](=O)[O-])cc2)cc1	FALSE
CC(=O)c1cc2c(c(O)c1C)C(=O)C(=O)c1c(O)cccc1-2	TRUE
CN[C@@H](CCCNC(N)=NC/C=C(/C)CCC=C(C)C)C(=O)N(C)[C@@H](CCCNC(N)=NCC=C(C)C)C(=O)N[C@H](C)[C@H](OS(=O)(=O)O)c1ccc(OS(=O)(=O)O)c(COS(=O)(=O)O)c1	FALSE
CC/C(=C(\CC)c1ccc(OCCN(CC)CC)cc1)c1ccc(OCCN(CC)CC)cc1	FALSE

Problem: Recorded test call requested for CC[C@H]1[C@@H]2C=C[C@@H]3[C@H]4C/C=C\C(=O)NCCC[C@@H]5NC(=O)/C(=C(O)/C=C/[C@@H]4C[C@@H]3[C@H]2C[C@H]1C)C5=O
Solution: FALSE

Problem: For this compound, state the assay outcome: O=C(C[n+]1cccc(Br)c1)c1ccc2c(c1)CCCC2
Solution: FALSE

Problem: Write down the call the test reported for this compound. Item: CCN(CC)CCNCC(O)Cc1ccc(OC)cc1 (centres undefined)
Solution: FALSE

Problem: Hi, sorry to bother you, what did the test record for O=C(O)c1cccc2oc(-c3ccccc3O)nc12 ?
Solution: FALSE

====

# Tested on: OVCAR-8 ovarian
# procedure.details: NCI-60 one-dose screen, 48 h
# test.parameters: 10 µM unless noted
The panel holds about 83,000 compounds, 20% with a hit somewhere; the sample as a whole holds those more often. The source made the active and inactive calls. Rule for the calls: active = growth percent below 10; inactive = the rest.
Outcome (select one): active, inactive

Illustrative cases are given below, each with its answer.
COc1cc(-c2nc(N)n(CC(=O)Nc3ccc(/C(C)=N\O)cc3)n2)cc(OC)c1OC inactive
Nc1ccc(S(=O)(=O)Nc2cc(I)cc(I)c2)cc1 inactive
CCCCCCCCCCCCCCCCCCNCc1ccc(Cl)cc1 active

Problem: Hi, do you know how CC(/C=C/C=C(\C)[C@H](O)[C@H](C)C(=O)O[C@H]1C[C@H](C)C=C2C=C[C@@]3(C)O[C@@H](O)CC(=O)[C@]3(C)[C@H]21)=C\C=C\C(=O)O came out in this test?
Solution: inactive

Problem: GET /call?item= CCCCOc1c(N)cc(Cl)cc1C(=O)OCCN(CC)CC returns the recorded outcome of this test.
Solution: inactive

Problem: State the result this test recorded for CCN(CC)CC(=O)Nc1c(C)cccc1C .
Solution: inactive

Problem: Which outcome did this test record for the compound NN=C(c1ccc(Cl)cc1)c1ccc(Cl)cc1 ?
Solution: inactive

Problem: What did the test return for C#C[C@@]1(O)[C@@H](CO)O[C@@H](n2cc(Br)c3c(Cl)ccnc32)[C@@H]1O ?
Solution: active

Problem: For Cc1ccc(N(CC2=NCCN2)c2cccc(O)c2)cc1 , which call appears in the assay record?
Solution: inactive

Problem: How did this test come out for C=C1C(=O)O[C@H]2[C@H]1CC/C(COC(=O)c1ccc(C#N)cc1)=C\CC[C@@]1(C)O[C@@H]21 ?
Solution: active
